Molecular target: trypanothione synthetase of L. infantum (LiTryS) (Leishmania infantum, UniProt A4I2Z3)
Sequence (A4I2Z3 entry or part of it): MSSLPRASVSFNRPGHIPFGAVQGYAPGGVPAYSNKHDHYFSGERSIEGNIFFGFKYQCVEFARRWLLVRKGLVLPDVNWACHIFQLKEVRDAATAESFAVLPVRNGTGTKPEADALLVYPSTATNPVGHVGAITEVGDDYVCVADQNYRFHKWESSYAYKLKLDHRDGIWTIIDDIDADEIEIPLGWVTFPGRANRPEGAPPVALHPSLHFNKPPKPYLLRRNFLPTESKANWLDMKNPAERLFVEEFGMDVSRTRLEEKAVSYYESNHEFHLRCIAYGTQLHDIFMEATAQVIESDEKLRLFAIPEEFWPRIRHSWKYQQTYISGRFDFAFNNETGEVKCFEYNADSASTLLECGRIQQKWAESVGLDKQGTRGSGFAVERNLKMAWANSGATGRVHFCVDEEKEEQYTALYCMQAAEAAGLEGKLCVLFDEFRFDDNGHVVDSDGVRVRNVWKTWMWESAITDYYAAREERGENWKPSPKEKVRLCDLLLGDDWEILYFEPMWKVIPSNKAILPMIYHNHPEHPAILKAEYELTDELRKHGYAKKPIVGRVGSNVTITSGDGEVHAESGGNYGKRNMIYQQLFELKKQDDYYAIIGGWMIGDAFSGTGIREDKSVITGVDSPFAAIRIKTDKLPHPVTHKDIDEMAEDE
Experiment: TryS activity screening assay on recombinant LiTryS
Assay type: biochemical
Settings: read-out: LiTryS activity [% at 30 μM]
Method: TryS from different trypanosomatids was produced in recombinant form with an N-terminal His-tag. […] Enzyme purity and activity were assessed by SDS-PAGE (12%) under reducing conditions and by the end-point TryS assay (see TryS activity screening assay), respectively. Protein concentration was determined using the bicinchoninic acid assay with bovine serum albumin as standard. […]
Recorded metric: activity at 30 µM (%)

molecule="O=C(O)CN1C(=O)Cc2c([nH]c3ccc(C(F)(F)F)cc23)-c2ccc(Cl)cc21 [9c]" value_observed=62.4
molecule="Cl.Cl.O=C(CN1C(=O)Cc2ccccc2-c2ccccc21)NCCN1CCNCC1 [4d]" value_observed=99.5
molecule="CN(CCNC(=O)CN1C(=O)Cc2c([nH]c3ccc(I)cc23)-c2ccc(Cl)cc21)C(=O)OC(C)(C)C [10a]" value_observed=38.3
molecule="CO/N=C1\\CCC(=O)N(CC(=O)NCCN2CCN(C(=O)OC(C)(C)C)CC2)c2ccccc21 [5b]" value_observed=97.8
molecule="O=C(CN1C(=O)CCCc2ccccc21)N1CCCC1 [2j]" value_observed=100
molecule="O=C(O)CN1C(=O)Cc2c([nH]c3ccc(I)cc23)-c2ccc(Cl)cc21 [9a]" value_observed=67.2
molecule="O=C(CN1C(=O)CCCc2ccccc21)NCCN1CCOCC1 [2t]" value_observed=91
molecule="NCCCCNC(=O)CN1C(=O)CCCc2ccccc21 [2s]" value_observed=104
molecule="CC1(C)CCc2ccccc2N(CC(=O)NCCN2CCNCC2)C1=O.Cl.Cl [3d]" value_observed=100
molecule="CC(C)(C)OC(=O)NCCNC(=O)CN1C(=O)CCCc2ccccc21 [2c]" value_observed=96.7
molecule="CNCCNC(=O)CN1C(=O)Cc2c([nH]c3ccc(C(F)(F)F)cc23)-c2ccc(Cl)cc21 [1h]" value_observed=0
molecule="CO/N=C1\\CCC(=O)N(CC(=O)OC(C)(C)C)c2ccccc21 [compound 21]" value_observed=92.4
molecule="NCCNC(=O)CN1C(=O)CCCc2ccccc21 [2p]" value_observed=82.4
molecule="Cl.Cl.O=C(CN1C(=O)CCCc2ccccc21)NCCN1CCNCC1 [2o]" value_observed=98.8

* * *

Biological target: trypanothione synthetase of L. infantum (LiTryS) (Leishmania infantum)
Experiment: TryS activity screening assay on recombinant LiTryS
Type: biochemical
Details: read-out: LiTryS activity [% at 30 μM]
Measured activity at 30 µM by item
Recorded metric: activity at 30 µM (%)

compound="CN1CCN(CCNC(=O)CN2C(=O)CCCc3ccccc32)CC1 [2u]" result_unit=% value_observed=106
compound="CN1CCN(C(=O)CN2C(=O)CCCc3ccccc32)CC1 [2v]" result_unit=% value_observed=98.2
compound="O=C(CN1C(=O)CCCc2ccccc21)N1CCOCC1 [2h]" result_unit=% value_observed=92.7
compound="CO/N=C1\\CCC(=O)N(CC(=O)O)c2ccccc21 [compound 22]" result_unit=% value_observed=96.7
compound="CCN(CC)C(=O)CN1C(=O)CCCc2ccccc21 [2k]" result_unit=% value_observed=92.9
compound="O=C(O)CN1C(=O)Cc2ccccc2-c2ccccc21 [compound 19]" result_unit=% value_observed=97.8
compound="CN(CCNC(=O)CN1C(=O)CCCc2ccccc21)C(=O)OC(C)(C)C [2e]" result_unit=% value_observed=92.5
compound="CC(C)(C)OC(=O)N1CCN(CCNC(=O)CN2C(=O)Cc3ccccc3-c3ccccc32)CC1 [4b]" result_unit=% value_observed=103
compound="CC(C)(C)OC(=O)CN1C(=O)Cc2ccccc2-c2ccccc21 [compound 18]" result_unit=% value_observed=99.4
compound="O=C(O)CN1C(=O)Cc2c([nH]c3ccc(Cl)cc23)-c2ccc(Cl)cc21 [9b]" result_unit=% value_observed=90.2

* * *

Measured Macrophage toxicity [% at stated conc.] by item
Test system: murine macrophages J774.A1
Test: Cytotoxicity assays on murine macrophages (WST-1)
Assay type: cell-based
Details: % cell death at 60 μM, error 1 SD
Recorded metric: Macrophage toxicity [% at stated conc.]

compound=CNCCNC(=O)CN1C(=O)Cc2c([nH]c3ccc(C(F)(F)F)cc23)-c2ccc(Cl)cc21 recorded_metric="Macrophage toxicity [% at stated conc.]" value_observed="102.8 ± 0.4%"
compound="CN(CCNC(=O)CN1C(=O)Cc2c([nH]c3ccc(I)cc23)-c2ccc(Cl)cc21)C(=O)OC(C)(C)C [10a]" recorded_metric="Macrophage toxicity [% at stated conc.]" value_observed="75.9 ± 9.9%"
compound="CN(CCNC(=O)CN1C(=O)Cc2c([nH]c3ccc(Cl)cc23)-c2ccc(Cl)cc21)C(=O)OC(C)(C)C [10b]" recorded_metric="Macrophage toxicity [% at stated conc.]" value_observed="47.9 ± 4.8%"
compound=CNCCNC(=O)CN1C(=O)Cc2c([nH]c3ccc(I)cc23)-c2ccc(Cl)cc21 recorded_metric="Macrophage toxicity [% at stated conc.]" value_observed="105.8 ± 0.2%"

* * *

Experiment: Thermodynamic aqueous solubility, shake-flask method and HPLC-UV
Type: physicochemical
Details: phosphate-buffered saline, aqueous buffer, thermodynamic from solid, PBS pH 7.4, 25°C, up to 72 h, HPLC-UV, logS of molar solubility [M]
Recorded metric: solubility thermodynamic at 72 h

compound=O=C(CN1C(=O)CCCc2ccccc21)N1CCCC1 recorded_metric="solubility thermodynamic at 72 h" value_observed="> 0.049 M"
compound=CNCCNC(=O)CN1C(=O)Cc2c([nH]c3ccc(I)cc23)-c2ccc(Cl)cc21 recorded_metric="solubility thermodynamic at 72 h" value_observed="1.7e-06 M"
compound=CNCCNC(=O)CN1C(=O)Cc2c([nH]c3ccc(C(F)(F)F)cc23)-c2ccc(Cl)cc21 recorded_metric="solubility thermodynamic at 72 h" value_observed="< 2.95e-07 M"
compound=CNCCNC(=O)CN1C(=O)Cc2c([nH]c3ccc(Cl)cc23)-c2ccc(Cl)cc21 recorded_metric="solubility thermodynamic at 72 h" value_observed="1.29e-05 M"
compound=Cl.Cl.O=C(CN1C(=O)Cc2ccccc2-c2ccccc21)NCCN1CCNCC1 recorded_metric="solubility thermodynamic at 72 h" value_observed="> 0.0562 M"
compound=CC1(C)CCc2ccccc2N(CC(=O)NCCN2CCNCC2)C1=O.Cl.Cl recorded_metric="solubility thermodynamic at 72 h" value_observed="> 0.114 M"
compound="CON=C1CCC(=O)N(CC(=O)N2CCCC2)c2ccccc21 (mixture of isomers)" recorded_metric="solubility thermodynamic at 72 h" value_observed="0.0263 M"
compound=Cl.Cl.O=C(CN1C(=O)CCCc2ccccc21)NCCN1CCNCC1 recorded_metric="solubility thermodynamic at 72 h" value_observed="> 0.248 M"

* * *

Target: trypanothione synthetase of L. infantum (LiTryS) (Leishmania infantum)
Assay: TryS activity screening assay on recombinant LiTryS
Assay type: biochemical
Conditions: recombinant TryS; errors 2 SD; read-out: LiTryS inhibition [IC50
pIC50: −log10 of the molar value.
Measured pIC50 by item
Recorded metric: pIC50

item_smiles=CNCCNC(=O)CN1C(=O)Cc2c([nH]c3ccc(C(F)(F)F)cc23)-c2ccc(Cl)cc21 subject_of_test="trypanothione synthetase of L. infantum (LiTryS) (Leishmania infantum)" recorded_metric=pIC50 value_observed=7.22
item_smiles=CNCCNC(=O)CN1C(=O)Cc2c([nH]c3ccc(I)cc23)-c2ccc(Cl)cc21 subject_of_test="trypanothione synthetase of L. infantum (LiTryS) (Leishmania infantum)" recorded_metric=pIC50 value_observed=7.15
item_smiles=CNCCNC(=O)CN1C(=O)Cc2c([nH]c3ccc(Cl)cc23)-c2ccc(Cl)cc21 subject_of_test="trypanothione synthetase of L. infantum (LiTryS) (Leishmania infantum)" recorded_metric=pIC50 value_observed=6.41

* * *

Measured activity at 30 µM by item
Target: trypanothione synthetase of L. infantum (LiTryS) (Leishmania infantum, UniProt A4I2Z3)
Experiment: TryS activity screening assay on recombinant LiTryS
Type: biochemical
Conditions: read-out: LiTryS activity [% at 30 μM]
Recorded metric: activity at 30 µM (%)

compound=CNCCNC(=O)CN1C(=O)CCCc2ccccc21 subject_of_test="trypanothione synthetase of L. infantum (LiTryS) (Leishmania infantum, UniProt A4I2Z3)" recorded_metric="activity at 30 µM" value_observed=88.9
compound=CC(C)(C)OC(=O)N1CCN(C(=O)CN2C(=O)CCCc3ccccc32)CC1 subject_of_test="trypanothione synthetase of L. infantum (LiTryS) (Leishmania infantum, UniProt A4I2Z3)" recorded_metric="activity at 30 µM" value_observed=108
compound=CNCCNC(=O)CN1C(=O)Cc2c([nH]c3ccc(I)cc23)-c2ccc(Cl)cc21 subject_of_test="trypanothione synthetase of L. infantum (LiTryS) (Leishmania infantum, UniProt A4I2Z3)" recorded_metric="activity at 30 µM" value_observed=2.2
compound=CC(C)(C)OC(=O)N1CCN(CCNC(=O)CN2C(=O)C(C)(C)CCc3ccccc32)CC1 subject_of_test="trypanothione synthetase of L. infantum (LiTryS) (Leishmania infantum, UniProt A4I2Z3)" recorded_metric="activity at 30 µM" value_observed=107
compound="CON=C1CCC(=O)N(CC(=O)NCCN2CCNCC2)c2ccccc21 (mixture of isomers)" subject_of_test="trypanothione synthetase of L. infantum (LiTryS) (Leishmania infantum, UniProt A4I2Z3)" recorded_metric="activity at 30 µM" value_observed=97.5
compound=CC(C)(C)OC(=O)N1CCN(CCNC(=O)CN2C(=O)CCCc3ccccc32)CC1 subject_of_test="trypanothione synthetase of L. infantum (LiTryS) (Leishmania infantum, UniProt A4I2Z3)" recorded_metric="activity at 30 µM" value_observed=91.4
compound="CN(CCNC(=O)CN1C(=O)Cc2c([nH]c3ccc(Cl)cc23)-c2ccc(Cl)cc21)C(=O)OC(C)(C)C [10b]" subject_of_test="trypanothione synthetase of L. infantum (LiTryS) (Leishmania infantum, UniProt A4I2Z3)" recorded_metric="activity at 30 µM" value_observed=35.4
compound=CNCCNC(=O)CN1C(=O)C(C)(C)CCc2ccccc21 subject_of_test="trypanothione synthetase of L. infantum (LiTryS) (Leishmania infantum, UniProt A4I2Z3)" recorded_metric="activity at 30 µM" value_observed=99.8
compound=CN(CCNC(=O)CN1C(=O)C(C)(C)CCc2ccccc21)C(=O)OC(C)(C)C subject_of_test="trypanothione synthetase of L. infantum (LiTryS) (Leishmania infantum, UniProt A4I2Z3)" recorded_metric="activity at 30 µM" value_observed=104
